// reported PBM binding z-score for each item listed
System: VDR homodimer (NR concentration 270 nM)
test description: PBM binding z-score (relative to random genomic background probes); higher = stronger binding; sequences stand for … in GC…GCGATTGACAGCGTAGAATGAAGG
Just the number.

Answered cases to consult:
>>> print(df.to_string())
                                chain  readout_number
0  GATACAGGGACAAGGCCAGAGTACGCGTATTGAT            0.46
1  TCTATTAGTTGAAGGGTAACCGACGAGTCCGTTT            1.44
2  TTACCAAGGTGAGCTGAGGTCGTTGTTCCAACTC            2.12
3  TGAATGAGGTTAAAAGATCAGGGAACGTTGCAAA           0.327
4  GCTAGTTGGTCAGTAAAAGGTCAAACACCGGTCG            1.98
5  ATCGAAAGGTCGACGAGGTGAGTTTACACCGTTT            2.35

Task: PBM binding z-score of TAGCCTAGGTGATTCAGGGGCCAGTATAGAAAGC on VDR homodimer (NR concentration 270 nM)?
Result: -0.15

Task: What is its PBM binding z-score for VDR homodimer (NR concentration 270 nM)? Entry: ATATGTAGGTTAAGGGTCATTCGGGTTGGTTCGC
Result: 5.4

Task: Which PBM binding z-score is reported with VDR homodimer (NR concentration 270 nM) for this entry: CGAACTAGGTCAGGACAGGACAGTGAAGGATGAT ?
Result: -0.189

Task: Param readout = PBM binding z-score; param system = VDR homodimer (NR concentration 270 nM); param query = GCTAGTTGGTCAGTAGAAGGTCACACACCGGTCG ; response: value
Result: 1.32

Task: What PBM binding z-score appears in the records for this sequence with VDR homodimer (NR concentration 270 nM)? TCTCGGAGGACACGAAGGTCAGAGCCTTCCAGAG
Result: 1.24

Task: Report PBM binding z-score for GCTATTAGATGAAAGGGCAACCGAATGATTCTCG tested on VDR homodimer (NR concentration 270 nM).
Result: -0.071
